- Tested on: Liver
- EXPERIMENT_NOTES: Metabolic stability in CD-1 mouse liver microsomes assessed as parent compound remaining at 0.5 uM after 0.5 hr
- Assay type: ADME, microsome
READOUT_TYPE: Stability (%)
Answers are plain numbers, in %.

Count: 5. Required value per item: Stability.
1. O=[N+]([O-])c1cn2c(n1)OC[C@@H](OCc1ccc(-c3ccc(OC(F)F)cc3)cn1)C2
2. O=[N+]([O-])c1cn2c(n1)OCC(COc1ccc(OC(F)(F)F)cc1)C2 (configuration not stated)
3. O=[N+]([O-])c1cn2c(n1)OC[C@H](OCc1cccc(-c3ccc(F)cc3)n1)C2
4. O=[N+]([O-])c1cn2c(n1)OC[C@H](OCc1ccc(-c3ccc(OC(F)(F)F)cc3F)cn1)C2
5. O=[N+]([O-])c1cn2c(n1)OCC(COc1ccc(-c3ccc(OC(F)(F)F)cc3)nc1)C2 (configuration not stated)

### Response
88
88
68
79
96

---

- System: Liver
- EXPERIMENT_NOTES: Metabolic stability in CD-1 mouse liver microsomes assessed as parent compound remaining at 0.5 uM after 0.5 hr
- Assay type: ADME, microsome
Please use Met for Stability under 80% and Not met for everything else, ties included.

>  <INPUT_SMILES>
O=[N+]([O-])c1cn2c(n1)OC[C@@H](OCc1cccc(-c3ccc(F)cc3)n1)C2

>  <ANSWER_LABEL>
Met

$$$$
>  <INPUT_SMILES>
O=[N+]([O-])c1cn2c(n1)OC[C@@H](OCc1ccc(-c3ccc(OC(F)(F)F)cc3Cl)cn1)C2

>  <ANSWER_LABEL>
Not met

$$$$
>  <INPUT_SMILES>
O=[N+]([O-])c1cn2c(n1)OC[C@H](OCc1cccc(-c3ccc(OC(F)(F)F)cc3)n1)C2

>  <ANSWER_LABEL>
Met

$$$$
>  <INPUT_SMILES>
O=[N+]([O-])c1cn2c(n1)OC[C@@H](OCc1ccc(-c3ccc(OC(F)(F)F)cc3F)cn1)C2

>  <ANSWER_LABEL>
Not met

$$$$

Now look at this one.
### Prompt Strictly below 80% in Stability? O=[N+]([O-])c1cn2c(n1)OC[C@H](OCc1ccc(-c3ccc(F)cc3)cn1)C2
### Response Met

Measured values drawn from ChEMBL document CHEMBL4020832 for this set.
